- TESTED TARGET: T1, mouse MAdCAM expressed on cells (mouse, UniProt Q61826 22-405)
- T1 construct: whole, on cells
- T1 sequence (looked up): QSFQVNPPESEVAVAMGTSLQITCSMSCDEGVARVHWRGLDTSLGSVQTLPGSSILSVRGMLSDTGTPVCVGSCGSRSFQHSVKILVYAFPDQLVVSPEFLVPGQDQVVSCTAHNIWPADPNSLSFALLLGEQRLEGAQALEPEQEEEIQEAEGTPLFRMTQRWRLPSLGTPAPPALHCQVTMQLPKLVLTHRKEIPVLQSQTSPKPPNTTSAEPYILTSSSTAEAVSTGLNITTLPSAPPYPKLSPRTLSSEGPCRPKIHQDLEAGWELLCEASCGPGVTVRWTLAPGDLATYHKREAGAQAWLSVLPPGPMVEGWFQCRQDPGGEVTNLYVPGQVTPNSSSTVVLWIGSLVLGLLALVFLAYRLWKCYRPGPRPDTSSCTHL
- ASSAY NAME: cell binding
PARAMETER: binding result

BINDER	PARAMETER	RESULT
MAdCAM Antibody Table 2 clone 84 (antibody, V domains shown, IgG format) VH: QVQLVQSGAEVKKPGASVKVSCKASGGTFSSSAISWVRQAPGQGLEWMGWISAYNGYTNYAQKFQGRVTMTRDTSTSTVYMELSSLRSEDTAVYYCASRVHSGGSYPDDYWGQGTLVTVSS VL: DIQMTQSPSSLSASVGDRVTITCQASEHIYNYLNWYQQKPGKAPKLLIYAASSLQSGVPSRFSGSGSGTDFTLTISSLQPEDFATYYCQQTDSIPITFGQGTKVEIK	binding result	binds
MAdCAM Antibody Table 2 clone 30 (antibody, V domains shown, IgG format) VH: EVQLLESGGGLVQPGGSLRLSCAASGFTFSSYAMHWVRQAPGKGLEWVSGISGSGGSAYYADSVKGRFTISRDNSKNTLYLQMNSLRAEDTAVYYCATSQAPVDYYYYGMDVWGQGTTVTVSS VL: DIQMTQSPSSLSASVGDRVTITCRASQSISSWLAWYQQKPGKAPKLLIYAASNLQRGVPSRFSGSGSGTDFTLTISSLQPEDFATYYCQQSYSIPITFGQGTKVEIK	binding result	binds
